assay: folding stability dG unfold from trypsin proteolysis; higher = more stable
Answer not fulfilled if folding stability dG unfold is under 1 kcal/mol, and fulfilled if it is 1 kcal/mol or more.

In [3]: df
Out[3]:
                              sequence_input    label_class
 0  SAGGSAGGKVKFEIPNAKITSVEYDPNPGLLKVEFELPNGLKLTAIFKIDKDKAILAKIEISPESAGGSAGG [r6_718_TrMRF]      fulfilled
 1  SAGGKYKIEIVDVEVKEDGTVTIKLKLYNENGELIAEIEIELKGVKEVTLELEIGGKKIKITLKVEKPSAGG [r13_427_TrROS_Hall]      fulfilled
 2  SAGGSAGGSNIVSARPLGDLVLIEIEPGGKPLRAVVRPSELPPNPPIPPGLSYRVEPGSVSDYSAGGSAGGS [r12_1005_TrMRF]  not fulfilled
 3  SAGGSMVVTETLVETLTETLTFPDGTPVTVTVPVTVTVEVYLPEPPAPPPLPFSRLAEELGDPALVSAGGSA [r2_340_JUSTAS]  not fulfilled
 4  SAGMTIEELRSLPPGARVTSVEYDEETEEVTVTVERTREDGKTETLTLTFRSREELEAALKAGADRIVFSAG [r5_905_TrROS_Hall]      fulfilled
 5  SAGGSAGGNVKIEVEPGPNGNYLIKIRMPNGTKVEHQFDSPEDAEERAKDFAEEFPPNAQVEIWSAGGSAGG [r6_464_TrROS]  not fulfilled
 6  SAGTREQVKAIAREIANEIWDTFPDMRGQKFKVKIKVEPEPNGWVRVKVTIQFPGGVQYTFPIWIPVESAGG [r19_194_TrROS]      fulfilled
 7  SAGITIRLPGAEIEVQRYPHPGNGMPMYRVTVELENPEGKKPKVDVIFPPNQPPGQVENVARYIAKELKSAG [r5_704_TrROS]  not fulfilled
 8  SAGEIAEKLGFKVEDVSIQKEDGTYRIVVRFPMDDRPVVIMGDIKVEEKNGKRKIEIDIDIMPLPPDDPSAG [r5_516_TrROS]      fulfilled
 9  SAGGSAGGSMIKIKVKSKEDVEALIKELEKAGFKVKKVEEVDGKVYFTLENGEKIEIEVVPPESAGGSAGGS [r20_93_TrROS_Hall]      fulfilled
10  SAGGSAGGSAGGSILLITTHPKDAEKAAKEIEKILAELDIPPDAKIEVYVVPKEYLPDESAGGSAGGSAGGS [r4_472_TrMRF]  not fulfilled
11  KIKELAKKLGLNVTVKVEKKPIKNPDGSTYTITKVEVTVDKKNKTITIKVEVKNKKTNKTITKTYTIKLKKS [r1_448_TrROS_Hall]      fulfilled
12  SAGGSAGGSASLSPDEEVEITDPANGTKYKVTKLPDGTVLLENPETGETYVRTDSNDWKLTSAGGSAGGSAG [r3_96_JUSTAS]  not fulfilled
13  SAGGSAGGSAGGKVLHVPYENIEEKIKEAEEKYPNKEILIHAYLPNGKLLKTIKIKVKKSAGGSAGGSAGGS [r10_741_TrMRF]      fulfilled
